Hey, just so you know, these numbers are from paper PMC8036738.

- TARGET_OF_ASSAY: COX-1 (Ovis aries, UniProt P05979)
- Construct: purchased BioVision
- Sequence (P05979 25-600): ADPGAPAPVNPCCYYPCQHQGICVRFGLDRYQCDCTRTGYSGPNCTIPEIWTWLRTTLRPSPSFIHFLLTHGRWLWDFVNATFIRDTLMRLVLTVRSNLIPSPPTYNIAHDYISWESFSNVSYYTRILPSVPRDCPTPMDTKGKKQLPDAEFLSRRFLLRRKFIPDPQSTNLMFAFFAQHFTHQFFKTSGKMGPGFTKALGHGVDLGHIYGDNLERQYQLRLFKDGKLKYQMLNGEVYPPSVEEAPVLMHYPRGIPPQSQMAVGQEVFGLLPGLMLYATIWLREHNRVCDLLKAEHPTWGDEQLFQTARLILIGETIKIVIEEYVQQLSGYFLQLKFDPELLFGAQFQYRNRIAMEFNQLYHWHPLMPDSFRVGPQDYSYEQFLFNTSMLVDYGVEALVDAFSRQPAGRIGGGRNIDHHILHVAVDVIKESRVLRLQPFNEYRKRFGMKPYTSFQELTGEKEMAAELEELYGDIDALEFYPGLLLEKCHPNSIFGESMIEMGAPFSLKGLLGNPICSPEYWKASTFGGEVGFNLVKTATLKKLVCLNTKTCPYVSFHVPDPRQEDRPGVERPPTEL
- ASSAY_OVERVIEW: in vitro COX-1 enzyme inhibition assay (fluorometric inhibitor screening kit)
- Assay type: biochemical, ovine
EXPERIMENTAL_READOUT: IC50 (µM)
Give your result in µM as a bare value.

Request: Fill in IC50 for record CC(C)=CCc1c(-c2ccc(O)cc2O)oc2c(CC=C(C)C)c(O)cc(O)c2c1=O
Result: 67
